Data provenance: patent US20250188176A1

Molecular target: T1, Extracellular domain (ECD) of the canine IL-4 receptor alpha-AviTag-His Tag (canine)
T1 construct: expressed in CHO cells; also called canine IL-4RA; canine IL4Ra
T1 chain: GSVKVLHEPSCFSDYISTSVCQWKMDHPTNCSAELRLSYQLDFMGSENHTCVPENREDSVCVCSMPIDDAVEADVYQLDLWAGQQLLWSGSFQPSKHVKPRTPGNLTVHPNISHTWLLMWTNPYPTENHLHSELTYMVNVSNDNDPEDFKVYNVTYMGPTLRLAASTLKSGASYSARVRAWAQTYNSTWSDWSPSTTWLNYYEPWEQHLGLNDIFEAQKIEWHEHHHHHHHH
Assay: SPR, IgG captured via anti-dog Fc
property name: koff (s⁻¹)
Give bare numbers, in s⁻¹.

{"binder": "21188-H + 21188-L (antibody, V domains shown) VH: EVQLVESGGDLVKPGGSLRLSCVASGFTFRDYAMTWVRQAPGKGLQWLSLISGSGGKTYYADAVKGRFTISRDNAKNTLYLQMNSLRAEDTAVYYCAVDRLTKTIRPQYYGLWHWGQGTLVTVSS VL: DIVMTQTPLSLSVSPGETASISCRSSQSLTYSIGYNYLDWYMQKPGQSPQGLIYLGSKRASGVSDRFSGSGSGADFTLKISRVEADDAGVYYCMQGLQSPLGFGQGTKLEIKR", "koff [s⁻¹]": "5.96e-05"}

Here is another binder to look at.
I would be grateful if you could share the reported koff for 21188-H + FJP10F04-L (antibody, V domains shown) VH: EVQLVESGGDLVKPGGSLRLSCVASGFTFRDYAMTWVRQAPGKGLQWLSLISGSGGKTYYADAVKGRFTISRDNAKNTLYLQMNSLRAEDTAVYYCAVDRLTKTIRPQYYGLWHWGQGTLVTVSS VL: DIVMTQTPLSLSVSPGETASISCRSSKSLLYSIGYNYLDWYMQKPGQSPQGLIYLGSKRASGVSDRFSGSGSGADFTLKISRVEADDAGVYYCMQGLHSPLTFGQGTKLEIKR .
6.81e-05
